// reported MIC per item
system: Enterobacter cloacae B1966 clinical isolate; assay: Study 4 - MIC by broth micro-dilution (CLSI); type: cell-based; settings: Enterobacter cloacae

- molecule: "CC(C)CC(N)C(=O)N[S+]([O-])c1ccccc1F (stereo not drawn) [4.31]"
  MIC: "4 µg/mL"
- molecule: "CC(C)CC(N)C(=O)N[S+]([O-])c1cccc(C(F)(F)F)c1 (stereo not drawn) [4.18]"
  MIC: "> 64 µg/mL"
- molecule: "CC(C)CC(N)C(=O)N[S+]([O-])c1cccc(-c2ccn(C)n2)c1 (stereo not drawn) [4.26]"
  MIC: "> 64 µg/mL"

**Query** Fill blank: measured MIC of the molecule CC(C)CC(N)C(=O)N[S+]([O-])c1cccc(F)c1 (stereo not drawn) [4.11] is ____.
**Result** 4 µg/mL

**Query** Fill blank: measured MIC of the molecule COC(=O)c1cccc([S+]([O-])NC(=O)C(N)CC(C)C)c1 (stereo not drawn) [4.21] is ____.
**Result** > 64 µg/mL

**Query** Fill blank: measured MIC of the molecule C=Cc1cccc([S+]([O-])NC(=O)C(N)CC(C)C)c1 (stereo not drawn) [4.16] is ____.
**Result** 32 µg/mL
